conditions: in acetone, 318.15 K
property measured: solubility (mole fraction)
One number for each entry.

**Q:** Check the records and state solubility (mole fraction) for `Cc1cccc2sc(NN)nc12`
**A:** 0.0456

* * *

conditions: in ethanol, 273.15 K
property measured: solubility (mole fraction)
Give bare numbers.

**Q:** Check the records and state solubility (mole fraction) for `Cc1cccc2sc(NN)nc12`
**A:** 0.000807

* * *

conditions: in acetone, 303.15 K
property measured: solubility (mole fraction)
Answers are plain numbers.

**Q:** Check the records and state solubility (mole fraction) for `Cc1cccc2sc(NN)nc12`
**A:** 0.0285

* * *

conditions: in isopropanol, 303.15 K
property measured: solubility (mole fraction)
Give bare numbers.

**Q:** Check the records and state solubility (mole fraction) for `Cc1cccc2sc(NN)nc12`
**A:** 0.00353

* * *

conditions: in isopropanol, 278.15 K
property measured: solubility (mole fraction)
Numbers only.

**Q:** Check the records and state solubility (mole fraction) for `Cc1cccc2sc(NN)nc12`
**A:** 0.00123

* * *

conditions: in ethyl acetate, 313.15 K
property measured: solubility (mole fraction)
Answers are plain numbers.

**Q:** Check the records and state solubility (mole fraction) for `Cc1cccc2sc(NN)nc12`
**A:** 0.0176

* * *

conditions: in ethyl acetate, 308.15 K
property measured: solubility (mole fraction)
One number for each entry.

**Q:** Check the records and state solubility (mole fraction) for `Cc1cccc2sc(NN)nc12`
**A:** 0.0147

* * *

settings: in ethanol, 318.15 K
property measured: solubility (mole fraction)
Numbers only.

**Q:** Check the records and state solubility (mole fraction) for `Cc1cccc2sc(NN)nc12`
**A:** 0.00555

* * *

conditions: in ethanol, 308.15 K
property measured: solubility (mole fraction)
Give bare numbers.

**Q:** Check the records and state solubility (mole fraction) for `Cc1cccc2sc(NN)nc12`
**A:** 0.00377

* * *

settings: in water, 318.15 K
property measured: solubility (mole fraction)
Answers are plain numbers.

**Q:** Check the records and state solubility (mole fraction) for `Cc1cccc2sc(NN)nc12`
**A:** 6.25e-05

* * *

conditions: in ethanol, 298.15 K
property measured: solubility (mole fraction)
One number for each entry.

**Q:** Check the records and state solubility (mole fraction) for `Cc1cccc2sc(NN)nc12`
**A:** 0.00252

* * *

conditions: in toluene, 283.15 K
property measured: solubility (mole fraction)

**Q:** Check the records and state solubility (mole fraction) for `Cc1cccc2sc(NN)nc12`
**A:** 0.00366

* * *

settings: in water, 293.15 K
property measured: solubility (mole fraction)
One number for each entry.

**Q:** Check the records and state solubility (mole fraction) for `Cc1cccc2sc(NN)nc12`
**A:** 1.96e-05

* * *

settings: in methanol, 298.15 K
property measured: solubility (mole fraction)
Give bare numbers.

**Q:** Check the records and state solubility (mole fraction) for `Cc1cccc2sc(NN)nc12`
**A:** 0.00185

* * *

details: in n-butanol, 298.15 K
property measured: solubility (mole fraction)
Answers are plain numbers.

**Q:** Check the records and state solubility (mole fraction) for `Cc1cccc2sc(NN)nc12`
**A:** 0.00403

* * *

conditions: in n-butanol, 293.15 K
property measured: solubility (mole fraction)
Numbers only.

**Q:** Check the records and state solubility (mole fraction) for `Cc1cccc2sc(NN)nc12`
**A:** 0.00329

* * *

conditions: in acetone, 308.15 K
property measured: solubility (mole fraction)
One number for each entry.

**Q:** Check the records and state solubility (mole fraction) for `Cc1cccc2sc(NN)nc12`
**A:** 0.0335

* * *

details: in toluene, 313.15 K
property measured: solubility (mole fraction)
Give bare numbers.

**Q:** Check the records and state solubility (mole fraction) for `Cc1cccc2sc(NN)nc12`
**A:** 0.0145

* * *

conditions: in n-propanol, 293.15 K
property measured: solubility (mole fraction)
Answers are plain numbers.

**Q:** Check the records and state solubility (mole fraction) for `Cc1cccc2sc(NN)nc12`
**A:** 0.00272

* * *

conditions: in ethanol, 293.15 K
property measured: solubility (mole fraction)
Answers are plain numbers.

**Q:** Check the records and state solubility (mole fraction) for `Cc1cccc2sc(NN)nc12`
**A:** 0.00203

* * *

details: in n-butanol, 278.15 K
property measured: solubility (mole fraction)
Numbers only.

**Q:** Check the records and state solubility (mole fraction) for `Cc1cccc2sc(NN)nc12`
**A:** 0.00168

* * *

conditions: in toluene, 318.15 K
property measured: solubility (mole fraction)
One number for each entry.

**Q:** Check the records and state solubility (mole fraction) for `Cc1cccc2sc(NN)nc12`
**A:** 0.0178

* * *

details: in toluene, 298.15 K
property measured: solubility (mole fraction)
Answers are plain numbers.

**Q:** Check the records and state solubility (mole fraction) for `Cc1cccc2sc(NN)nc12`
**A:** 0.00736

* * *

conditions: in acetone, 283.15 K
property measured: solubility (mole fraction)
Give bare numbers.

**Q:** Check the records and state solubility (mole fraction) for `Cc1cccc2sc(NN)nc12`
**A:** 0.0142

* * *

conditions: in n-propanol, 283.15 K
property measured: solubility (mole fraction)
Give bare numbers.

**Q:** Check the records and state solubility (mole fraction) for `Cc1cccc2sc(NN)nc12`
**A:** 0.00178

* * *

details: in toluene, 308.15 K
property measured: solubility (mole fraction)
Numbers only.

**Q:** Check the records and state solubility (mole fraction) for `Cc1cccc2sc(NN)nc12`
**A:** 0.0116

* * *

details: in acetone, 293.15 K
property measured: solubility (mole fraction)
Answers are plain numbers.

**Q:** Check the records and state solubility (mole fraction) for `Cc1cccc2sc(NN)nc12`
**A:** 0.0203

* * *

details: in methanol, 313.15 K
property measured: solubility (mole fraction)
One number for each entry.

**Q:** Check the records and state solubility (mole fraction) for `Cc1cccc2sc(NN)nc12`
**A:** 0.00348

* * *

details: in ethyl acetate, 318.15 K
property measured: solubility (mole fraction)
Numbers only.

**Q:** Check the records and state solubility (mole fraction) for `Cc1cccc2sc(NN)nc12`
**A:** 0.0209

* * *

conditions: in methanol, 308.15 K
property measured: solubility (mole fraction)
Numbers only.

**Q:** Check the records and state solubility (mole fraction) for `Cc1cccc2sc(NN)nc12`
**A:** 0.00284

* * *

conditions: in n-propanol, 273.15 K
property measured: solubility (mole fraction)

**Q:** Check the records and state solubility (mole fraction) for `Cc1cccc2sc(NN)nc12`
**A:** 0.00115

* * *

settings: in water, 288.15 K
property measured: solubility (mole fraction)
One number for each entry.

**Q:** Check the records and state solubility (mole fraction) for `Cc1cccc2sc(NN)nc12`
**A:** 1.51e-05

* * *

settings: in methanol, 303.15 K
property measured: solubility (mole fraction)

**Q:** Check the records and state solubility (mole fraction) for `Cc1cccc2sc(NN)nc12`
**A:** 0.00232

* * *

details: in isopropanol, 318.15 K
property measured: solubility (mole fraction)
Answers are plain numbers.

**Q:** Check the records and state solubility (mole fraction) for `Cc1cccc2sc(NN)nc12`
**A:** 0.0062

* * *

settings: in n-butanol, 288.15 K
property measured: solubility (mole fraction)
Give bare numbers.

**Q:** Check the records and state solubility (mole fraction) for `Cc1cccc2sc(NN)nc12`
**A:** 0.00263

* * *

settings: in n-propanol, 303.15 K
property measured: solubility (mole fraction)

**Q:** Check the records and state solubility (mole fraction) for `Cc1cccc2sc(NN)nc12`
**A:** 0.00395

* * *

settings: in ethanol, 288.15 K
property measured: solubility (mole fraction)

**Q:** Check the records and state solubility (mole fraction) for `Cc1cccc2sc(NN)nc12`
**A:** 0.00165

* * *

conditions: in n-butanol, 318.15 K
property measured: solubility (mole fraction)

**Q:** Check the records and state solubility (mole fraction) for `Cc1cccc2sc(NN)nc12`
**A:** 0.00904

* * *

conditions: in n-propanol, 278.15 K
property measured: solubility (mole fraction)
Give bare numbers.

**Q:** Check the records and state solubility (mole fraction) for `Cc1cccc2sc(NN)nc12`
**A:** 0.00143

* * *

details: in n-propanol, 313.15 K
property measured: solubility (mole fraction)
Give bare numbers.

**Q:** Check the records and state solubility (mole fraction) for `Cc1cccc2sc(NN)nc12`
**A:** 0.00573

* * *

settings: in water, 298.15 K
property measured: solubility (mole fraction)
One number for each entry.

**Q:** Check the records and state solubility (mole fraction) for `Cc1cccc2sc(NN)nc12`
**A:** 2.56e-05

* * *

details: in toluene, 293.15 K
property measured: solubility (mole fraction)
Numbers only.

**Q:** Check the records and state solubility (mole fraction) for `Cc1cccc2sc(NN)nc12`
**A:** 0.00583

* * *

settings: in n-butanol, 308.15 K
property measured: solubility (mole fraction)
One number for each entry.

**Q:** Check the records and state solubility (mole fraction) for `Cc1cccc2sc(NN)nc12`
**A:** 0.00616

* * *

conditions: in acetone, 278.15 K
property measured: solubility (mole fraction)
Give bare numbers.

**Q:** Check the records and state solubility (mole fraction) for `Cc1cccc2sc(NN)nc12`
**A:** 0.0118

Data provenance: BigSolDB 2.1
